This collection of values is drawn from paper PMC13168289.

system: P. falciparum D6, Dd2, Tm90-C2B, Dd2-D1^I22L, D10yDHODH; experiment: microbe, parasite or virus in culture; format: cell-based, Plasmodium falciparum; conditions: Plasmodium falciparum, read-out: in vitro IC50 vs P. falciparum, Dd2
Quantity Name: IC50
Number first, unit second: that is the form wanted.

Form entry - test system: P. falciparum D6, Dd2, Tm90-C2B, Dd2-D1^I22L, D10yDHODH; read-out: IC50; molecule: O=C1C(O)=C([C@H]2CC[C@H](c3ccc(Cl)cc3)CC2)C(=O)c2ccccc21 [ATV, atovaquone]
0.13 nM

* * *

tested on: P. falciparum mutant T111 lines; test: drug susceptibility of T111-selected cyt b mutant lines; format: cell-based, Plasmodium falciparum; conditions: Plasmodium falciparum, DD2, Supplementary Table 4; Dd2-D1131S-140I-259L (pfdhodh mutation)
Measured pIC50, listed per entry for reference.
On this scale, pIC50 is minus log10 of a concentration expressed in M (mol/L).

Reference set (3 entries):
| Compound | pIC50 |
| --- | --- |
| CCN(CC)CCCC(C)Nc1ccnc2cc(Cl)ccc12 (stereo not shown) | 6.79 |
| Clc1ccc2c(N3CCN(CCCN4CCN(c5ccnc6cc(Cl)ccc56)CC4)CC3)ccnc2c1 | 8.04 |
| CCCCN(CCCC)CC(O)c1cc(Cl)cc2c1-c1ccc(Cl)cc1/C2=C/c1ccc(Cl)cc1 (stereo not shown) | 8.62 |

Pending compound:
Query: pIC50; subject: C[C@H]1[C@@H](O)O[C@@H]2O[C@@]3(C)CC[C@H]4[C@H](C)CC[C@@H]1[C@@]24OO3 [DHA, dihydroartemisinin]
8.62

* * *

tested on: P. falciparum D6, Dd2, Tm90-C2B, Dd2-D1^I22L, D10yDHODH; assay: microbe, parasite or virus in culture; format: cell-based, Plasmodium falciparum; details: Dd2; read-out: in vitro IC50 vs P. falciparum
Listed below: IC50 values for each entry.
API: value field is a number in nM; no unit string.

| Molecule | Quantity Name | Reported Value |
| --- | --- | --- |
| O=c1c2ccc(Oc3ccc(OC(F)(F)F)cc3)cc2[nH]c2cc(Cl)cc(F)c12 [T111] | IC50 | 0.042 |

Now look at this one.
Returns the measured IC50 for the input molecule. Input: COc1cc2[nH]c(C)c(-c3ccc(Oc4ccc(OC(F)(F)F)cc4)cc3)c(=O)c2cc1Cl [ELQ-300]
3.1

* * *

Test system: P. falciparum mutant T111 lines
Assay: drug susceptibility of T111-selected cyt b mutant lines
Format: cell-based, Plasmodium falciparum
Details: Plasmodium falciparum, DD2, read-out: inhibition IC50 vs P. falciparum, Dd2-B^131S-140I-259L-264L
Description: DNA extractions were performed on clonal parasites using the QIAamp DNA extraction kit (QIAGEN Inc, Valencia, CA) or ZYMO Quick gDNA Miniprep kit (Zymo Research Corp, Irvine, CA). For sequencing of the open reading frame of pfcytb, PCR was performed with genomic DNA using forward and reverse flanking primers for cyt b primer 1: 5’-[…]-3’ and primer 2: 5’-[…]-3’. […]
Quantity Name: IC50

| Molecule | IC50 |
| --- | --- |
| Cc1cc(Nc2ccc(S(F)(F)(F)(F)F)cc2)n2nc(C(C)(F)F)nc2n1 [DSM265] | 2.8 nM |

With those in mind, consider the next molecule.
# get_value(readout='IC50', item= O=C1C(O)=C([C@H]2CC[C@H](c3ccc(Cl)cc3)CC2)C(=O)c2ccccc21 [ATV, atovaquone] )
11 nM

* * *

Catalogue of compounds with associated IC50
system: P. cynomolgi hypnozoites and schizonts; experiment: in vitro liver-stage P. cynomolgi assay in primary rhesus hepatocytes; assay type: cell-based, Plasmodium cynomolgi; details: Plasmodium cynomolgi, Hepatocyte, in Macaca mulatta, prophylactic mode, hypnozoite; read-out: inhibition IC50

Check out these entries, answers already filled in.
| Compound | Reported Value |
| --- | --- |
| O=C1C(O)=C([C@H]2CC[C@H](c3ccc(Cl)cc3)CC2)C(=O)c2ccccc21 | > 1200 nM |
| COc1cc(C)c2c(Oc3cccc(C(F)(F)F)c3)c(OC)cc(NC(C)CCCN)c2n1 (stereo not drawn) | 180 nM |

Return reported IC50; argument: CO[C@@H]1[C@@H](OC)[C@H](C)[C@@](O)(CC(=O)O)O[C@H]1[C@H](C)[C@H]1O[C@@]2(CC[C@@](C)([C@H]3CC[C@@](C)([C@@H]4O[C@@H]([C@H]5O[C@](C)(O)[C@H](C)C[C@@H]5C)C[C@@H]4O[C@@H]4C[C@H](OC)[C@@H](OC)[C@H](C)O4)O3)O2)C[C@H](O)[C@H]1C
< 0.98 nM

* * *

Tested on: P. cynomolgi hypnozoites and schizonts
Assay: in vitro liver-stage P. cynomolgi assay in primary rhesus hepatocytes
Format: cell-based, Plasmodium cynomolgi
Details: radical cure mode, hypnozoite; read-out: inhibition IC50
Procedure: The liver-stage P. cynomolgi assay was designed to identify anti-hypnozoite drugs utilizing a 384-well in vitro culture system[31],[37]. […] Two distinct treatment modes were evaluated. […] For readout on Day 8, plates were fixed and stained via immunofluorescence to visualize parasite forms (hypnozoites and schizonts) and hepatocyte nuclei, and images were acquired using an Operetta CLS high-content imaging system (PerkinElmer). […]
Quantity Name: pIC50
// pIC50: -log10(molar conc.)

# pIC50 lookup, item O=c1c2ccc(Oc3ccc(OC(F)(F)F)cc3)cc2[nH]c2cc(Cl)cc(F)c12
6.30

* * *

test system: P. falciparum mutant T111 lines; test: drug susceptibility of T111-selected cyt b mutant lines; type: cell-based, Plasmodium falciparum; conditions: Dd2; read-out: inhibition IC50 vs P. falciparum
Quantity Name: IC50 (nM)
Reply with just the number (in nM).

Reference set (2 entries):
| Compound | IC50, nM |
| --- | --- |
| CO/C(=C/C(N)=O)[C@H](C)[C@H](/C=C/c1csc(-c2csc([C@@H](C)/C=C/C=C/C(C)C)n2)n1)OC [MYX, myxothiazol] | 24 |
| O=c1c2ccc(Oc3ccc(OC(F)(F)F)cc3)cc2[nH]c2cc(Cl)cc(F)c12 [T111] | 0.15 |

Now consider a different compound.
# get_value(readout='IC50', item= COc1cc2[nH]c(C)c(-c3ccc(Oc4ccc(OC(F)(F)F)cc4)cc3)c(=O)c2cc1Cl [ELQ-300] )
38

* * *

experiment: cytotoxicity against HepG2 cells; type: cell-based; conditions: human; HepG2; read-out: inhibition IC50 vs HepG2
Quantity Name: IC50 at 24 h (µM)
Form entry: value (µM) — number only.

What measured IC50 at 24 h goes with CCN(CC)CCCC(C)Nc1ccnc2cc(Cl)ccc12 (stereo not shown) [CQ, chloroquine] ?
68.6

* * *

system: P. falciparum Dd2, DR1 and DR4; assay: SYBR Green 72 h drug susceptibility assay against ART-resistant clones; type: cell-based, Plasmodium falciparum; conditions: Dd2
Quantity Name: IC50 (nM)
Number in nM, nothing else.

Notebook entry, P. falciparum Dd2, DR1 and DR4 assay: IC50 of O=c1c2ccc(Oc3ccc(OC(F)(F)F)cc3)cc2[nH]c2cc(Cl)cc(F)c12 = ?
0.028

* * *

The following molecules are listed with their measured IC50 values.
system: P. falciparum mutant T111 lines; assay: drug susceptibility of T111-selected cyt b mutant lines; type: cell-based, Plasmodium falciparum; settings: Dd2-B^87V-131S-140I-259L; read-out: inhibition IC50 vs P. falciparum
Please give a number only; it is taken to be in nM.

Record excerpt, results attached:
| Smiles Data | Tested Target | IC50, nM |
| --- | --- | --- |
| O=c1c2ccc(Oc3ccc(OC(F)(F)F)cc3)cc2[nH]c2cc(Cl)cc(F)c12 | P. falciparum mutant T111 lines | 129 |
| COc1cc2[nH]c(C)c(-c3ccc(Oc4ccc(OC(F)(F)F)cc4)cc3)c(=O)c2cc1Cl | P. falciparum mutant T111 lines | 67 |

Quick one: IC50 of CO/C(=C/C(N)=O)[C@H](C)[C@H](/C=C/c1csc(-c2csc([C@@H](C)/C=C/C=C/C(C)C)n2)n1)OC ?
373

* * *

system: rhesus hepatocytes; experiment: host hepatocyte viability in the P. cynomolgi assay; assay type: cell-based; details: radical cure mode; read-out: cytotoxicity CC50
Quantity Name: CC50

Give CC50 (rhesus hepatocytes) of the following compound: CNC(=O)c1ccc(-c2cnc3cnc(C(=O)N(C)c4ccc(Cl)cc4)cn23)cc1
> 20 µM

* * *

test system: P. falciparum mutant T111 lines; assay: drug susceptibility of T111-selected cyt b mutant lines; assay type: cell-based, Plasmodium falciparum; conditions: Plasmodium falciparum, DD2, Supplementary Table 4; Dd2
Quantity Name: IC50 (nM)
Number in nM, nothing else.

Need IC50, item CCCCN(CCCC)CC(O)c1cc(Cl)cc2c1-c1ccc(Cl)cc1/C2=C/c1ccc(Cl)cc1 (stereo not shown) [LUM, lumefantrine]
1.2
